- Assay protocol: NCI Yeast Anticancer Drug Screen. Data for the rad50 strain (AID 155);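 note: 0% = growth of vehicle-only cultures of the same strain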
- Assay conditions: S. cerevisiae rad50 strain growth inhibition; at 50.0 µM; hits give high values
About 79,000 compounds went through this panel and 15% of them were active in at least one assay; those are over-represented in the sample as a whole.
Property label: growth inhibition (%)
Please give a number only; it is taken to be in %.

Examples from the recorded data:
* Cc1ccc(NC(=O)Oc2ccc(Cl)cc2Cl)cc1NC(=O)Oc1ccc(Cl)cc1Cl | -20.1
* COC(=O)CCc1cccnc1/C=N/O | -26.9
* Cc1nn(C(=O)c2cccnc2)c(-c2ccccc2)c1N=Nc1ccc(S(=O)(=O)Nc2ncccn2)cc1 | 23.7
* COc1ccc(C)cc1NS(=O)(=O)c1ccccc1 | -7.45
* Clc1ccccc1N=Cc1ccc(C=Nc2ccccc2Cl)cc1 | 26.9

Query string: growth inhibition lookup needed for N#CCc1nc(-c2cc3ccccc3oc2=O)cs1 , thanks.
Result string: 31.4

Query string: // repeat for Cc1ccc(CCOC(=O)Nc2ccccc2)cc1 and report
Result string: -7.55

Query string: Please do the same for O=C(C=C1CCCCC1)c1ccccc1 as well.
Result string: 12.9

Query string: O=C1CC2C=CC(O)C(C1)C2 (centres undefined) , same question.
Result string: -20.3

Query string: Follow-up item: CCNC(=O)C1CCCN1C(=O)C(CCCN=C(N)N)NC(=O)C(CC(C)C)NC(=O)C(Cc1c[nH]c2ccccc12)NC(=O)C(Cc1ccc(O)cc1)NC(=O)C(CO)NC(=O)C(Cc1c[nH]c2ccccc12)NC(=O)C(Cc1cnc[nH]1)NC(=O)C1CCC(=O)N1 (centres undefined)
Result string: -11.6

Query string: Further, for CCCCCCCCCCCCCCCC(=O)OC/C=C/COC(=O)c1ccccc1 ?
Result string: 22.9

Query string: Also, O=COC(Cc1ccccc1)c1ccc2c(c1)OCO2 (centres undefined) please.
Result string: 32.2

Query string: Entry to check: ClCCCCSC1CCCCC1
Result string: -5.7

Query string: Record: O=C1C(=O)N(CN2CCCCC2)c2ccccc21
Result string: 10.4

Query string: Quick one: COc1ccc(OC)c(NC(=O)C(=O)C(C(=O)c2ccccc2F)C2OC(=O)c3ccccc32)c1 (centres undefined)
Result string: -15.6

Query string: Now consider CC1(C)NC(c2ccccc2)c2ccsc2-n2cccc21 (centres undefined) and answer again.
Result string: -27.7

Query string: Another compound to look at: CCCCCC(=O)OCC[N+](C)(C)C
Result string: -29.8

Query string: Same lookup for CC1=Nn2c(nnc2-c2ccc(Cl)cc2)NC(C)(C)C1 , please.
Result string: 25.2

Query string: Also CC(C)NC(=O)CCC(=O)O ?
Result string: -14.9

Query string: Now this one: COC(=O)CCC(=O)Nc1cc(Cl)c(Cl)cc1Cl
Result string: -14.1

Query string: Proceed to COC(=O)c1cc2ccc(O)c(O)c2cn1
Result string: 41.1

Query string: Another: O=C(O)c1ccc(CSc2ccccc2C(=O)O)cc1
Result string: 16.4

---

growth inhibition for assorted compounds
- Assay protocol: NCI Yeast Anticancer Drug Screen. Data for the mec2-1 strain (AID 157)
- Assay conditions: S. cerevisiae mec2-1 strain, at 50.0 µM, hits give high values
The panel holds about 79,000 compounds, 15% with a hit somewhere; the sample as a whole holds those more often. Calls of active or inactive are those of the source. No stated cut-off is given here; in the data, active means growth inhibition above about 70%; inactive means the rest.

Solved cases (5 shown):
• N#Cc1cc([N+](=O)[O-])ccc1NC(=O)C(=O)C(C(=O)/C=C/c1ccccc1)C1OC(=O)c2ccccc21 (stereo unspecified) = -15.9% (inactive)
• Nc1cc(C(=O)O)cc2ccccc12 = -5.35% (inactive)
• COc1ccc(C2(O)c3ccccc3C(=O)c3ccc(OC)cc32)cc1 (stereo unspecified) = -10.6% (inactive)
• COC(=O)CCC(=O)Nc1cc(Cl)c(Cl)cc1Cl = 8.15% (inactive)
• Clc1ccc(C=NC23CC4CC(CC(C4)C2)C3)cc1Cl = -24.1% (inactive)

Next, consider the following compound.
Query string: Given the entry Oc1[nH]c2ccccc2c1N=Nc1nc(-c2ccc(Br)cc2)cs1 , report its measured growth inhibition.
Result string: -24.8% (inactive)
